molecular target: furin, P09958; assay: furin cleavage Z-score vs untreated control; higher = more cleavage, active = 3.5 or more, inactive = 1 or less, 8 variable residues between constant flanks; conditions: 7.5 min;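 note: purified furin at 1:10 enzyme:substrate in 50 mM HEPES pH 7.5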
Sequence (P09958 whole entry): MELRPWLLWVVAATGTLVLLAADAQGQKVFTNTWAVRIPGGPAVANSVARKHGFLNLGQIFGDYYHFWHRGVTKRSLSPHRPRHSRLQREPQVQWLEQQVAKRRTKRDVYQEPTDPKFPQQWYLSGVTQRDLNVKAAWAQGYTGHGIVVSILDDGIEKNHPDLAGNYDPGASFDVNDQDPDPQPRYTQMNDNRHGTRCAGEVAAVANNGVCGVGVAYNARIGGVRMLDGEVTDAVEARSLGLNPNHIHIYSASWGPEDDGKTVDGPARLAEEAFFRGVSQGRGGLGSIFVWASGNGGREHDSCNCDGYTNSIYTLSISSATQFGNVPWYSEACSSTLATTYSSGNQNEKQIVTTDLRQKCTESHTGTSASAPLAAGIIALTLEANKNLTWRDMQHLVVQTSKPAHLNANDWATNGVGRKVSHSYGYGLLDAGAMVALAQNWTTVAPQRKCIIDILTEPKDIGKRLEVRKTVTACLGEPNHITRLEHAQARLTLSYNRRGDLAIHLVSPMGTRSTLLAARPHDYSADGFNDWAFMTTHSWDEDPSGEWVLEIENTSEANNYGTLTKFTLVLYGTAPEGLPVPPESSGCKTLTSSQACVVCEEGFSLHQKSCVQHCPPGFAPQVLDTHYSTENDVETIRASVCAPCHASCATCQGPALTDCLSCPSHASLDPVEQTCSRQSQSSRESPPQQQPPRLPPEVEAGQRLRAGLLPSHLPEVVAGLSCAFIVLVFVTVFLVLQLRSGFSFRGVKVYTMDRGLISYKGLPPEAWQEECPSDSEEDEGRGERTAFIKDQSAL
The other results are listed elsewhere or left out. The true hit rate is not given.
Decide by furin cleavage Z-score: equal to or exceeding 1 means condition met, less means condition not met.

Q: Identify whether the reported furin cleavage Z-score of the following sequence is 1 or greater: CAWCTTPCSGAGNASASA [HC1948]
A: condition met

Q: What do you have for CARRKRKSQRAGNASASA [FS-2402] ?
A: condition met

Q: What do you have for CAEVVTSTWSAGNASASA [HC2257] ?
A: condition not met

Q: What do you have for CAPPSWDQMWAGNASASA [HC961] ?
A: condition met

Q: What do you have for CAPVGSQLPCAGNASASA [HC1238] ?
A: condition not met

Q: What do you have for CAGKKRRPVKAGNASASA [DV1] ?
A: condition not met

Q: What do you have for CARRKRRHHKAGNASASA [FS-1969] ?
A: condition met

Q: What do you have for CAEMSRTRRYAGNASASA [FS-1319] ?
A: condition met

Q: What do you have for CAGKSRRKRQAGNASASA [FS-1328] ?
A: condition met

Q: What do you have for CARRKRLRHRAGNASASA [FS-3054] ?
A: condition not met

Q: What do you have for CAVSVRRKRQAGNASASA [FS-516] ?
A: condition met

Q: What do you have for CASRDRFRRSAGNASASA [FS-1282] ?
A: condition met

Q: What do you have for CASRSLSRRSAGNASASA [FS-1088] ?
A: condition met

Q: What do you have for CADLEVVTSTAGNASASA [HC2271] ?
A: condition not met

Q: What do you have for CAHAWRSRRSAGNASASA [FS-1629] ?
A: condition met
